tested on: Amaranthus retoflexus (AMARE); experiment: Pre-emergence herbicidal glasshouse test on Amaranthus retoflexus; assay type: in vivo; settings: pre-emergence; 1000 g/h; evaluated after 13 days
Items are presented alongside their recorded PRE Application AMARE herbicidal damage (five point scale).

These solved cases illustrate the format of a correct answer.
> print(dat)
                                   molecule              reported
1      CCS(=O)(=O)c1ccccc1-c1cnn(C)c(=O)c1O  5 (5=80-100% damage)
2  COCn1ncc(-c2ccc(F)cc2S(C)(=O)=O)c(O)c1=O  5 (5=80-100% damage)
3  Cc1ccc(-c2cnn(C)c(=O)c2O)c(S(C)(=O)=O)c1  5 (5=80-100% damage)
4      Cc1nc(C(F)(F)F)ccc1-c1cnn(C)c(=O)c1O   4 (4=60-79% damage)
5  COc1nn(C)c(=O)c(O)c1-c1ccc(C(F)(F)F)cc1S(C)(=O)=O  5 (5=80-100% damage)
6  Cn1ncc(-c2ccc(C#N)cc2S(C)(=O)=O)c(O)c1=O  5 (5=80-100% damage)
7  C=C(C)c1ccc(-c2cnn(C)c(=O)c2O)c(S(C)(=O)=O)c1  5 (5=80-100% damage)
8  CCOc1cccc(-c2c(C(F)(F)F)ccn(-c3cnn(C)c(=O)c3O)c2=O)c1  5 (5=80-100% damage)

Form: molecule = `Cc1cc(-c2cnn(C)c(=O)c2O)c(=O)n(-c2ccccc2)c1` ; PRE Application AMARE herbicidal damage (five point scale) = 1 (1=0-19% damage)

Given item `Cn1ncc(-n2ccc(C(F)(F)F)c(-c3cc(Cl)cc(Cl)c3)c2=O)c(O)c1=O` , the value recorded as its PRE Application AMARE herbicidal damage (five point scale) is 5 (5=80-100% damage)

PRE Application AMARE herbicidal damage (five point scale) reading for CCCC[S+]([O-])c1ccccc1-c1cnn(C)c(=O)c1O (stereo not shown) : 1 (1=0-19% damage)

Data point: `C=CCn1ncc(-c2ccccc2S(C)(=O)=O)c(O)c1=O` ; PRE Application AMARE herbicidal damage (five point scale) = 5 (5=80-100% damage)

Consider `CCCn1ncc(-c2c(Cl)ccc(Cl)c2Cl)c(O)c1=O` . Its measured PRE Application AMARE herbicidal damage (five point scale) is 1 (1=0-19% damage)
